Target: DN-III quality control recombinant protein (produced by Fapon Biotech InC.) (dengue virus)
Assay: BLI, AMC sensor, antibody captured
readoutLabel: kon (M⁻¹ s⁻¹)
The figure you give is taken to be in M⁻¹ s⁻¹; do not add the unit.

Dear colleague, please send me the reported kon for Mutation 1-4 (antibody, V domains shown) VH: EVQLQQSGTELVRPGALVKLSCKASGFNIKDYYIHWVKQRPRQGLEWIGWIDPENGKTLYDPKFQDKASITSDTSTNTAYLQLRSLTSEDTAVYYCVSAYFRFVYWGQGTLVTVSA VL: QIVLTQSPAIMSAFPGERVTMTCSASSSVRYMYWHQQKPGSSPRLLIYDTSNLASGVPVRFSGSGSGTSYSLTISRDEAMDAATYYCQQWSSYPRTFGGGTKLEIKR when you can.
36200

Answer with reported kon of Mutation 1-28 (antibody, V domains shown) VH: EVQLQQSGTELVRPGALVKLSCKASGFNIKDYYIHWVKQRPRQGLEWIGWIDPENGKTLYDPKFQDKASITSDTSTNTAYLQLRSLTSEDTAVYYCVSAYFRFVYWGQGTLVTVSA VL: QIVLTQSPAIMSAFPGERVTMTCSASTSVRYMYWHQQKPGSSPRLLIYDTSNLASGVPVRFSGSGSGTSYSLTISRDEAMDAATYYCQQWSSYPRTFGGGTKLEIKR
37000

Please look at this binder and report its kon: Mutation 1-38 (antibody, V domains shown) VH: EVQLQQSGTELVRPGALVKLSCKASGFNIKDYYLHWVKQRPRQGLEWIGWIDPENGKTLYDPKFQDKASITSDTSTNTAYLQLRSLTSEDTAVYYCVTAYFRFVYWGQGTLVTVSA VL: QIVLTQSPAIMSAFPGERVTMTCSASSSVRYMYWHQQKPGSSPRLLIYDTSNIASGVPVRFSGSGSGTSYSLTISRDEAMDAATYYCQQWSSYPRTFGGGTKLEIKR
37800

Complete the entry with kon for Mutation 1-18 (antibody, V domains shown) VH: EVQLQQSGTELVRPGALVKLSCKASGFNIKDYYVHWVKQRPRQGLEWIGWIDPENGKTLYDPKFQDKASITSDTSTNTAYLQLRSLTSEDTAVYYCVSAYVRFVYWGQGTLVTVSA VL: QIVLTQSPAIMSAFPGERVTMTCSASSSVRYMYWHQQKPGSSPRLLIYDTSNLASGVPVRFSGSGSGTSYSLTISRDEAMDAATYYCQQWSSTPRTFGGGTKLEIKR
44500

Consider the binder Mutation 1-34 (antibody, V domains shown) VH: EVQLQQSGTELVRPGALVKLSCKASGFNIKDYYIHWVKQRPRQGLEWIGWIDPENGKTIYDPKFQDKASITSDTSTNTAYLQLRSLTSEDTAVYYCVSAYVRFVYWGQGTLVTVSA VL: QIVLTQSPAIMSAFPGERVTMTCSASSSVRYMYWHQQKPGSSPRLLIYDTSNLASGVPVRFSGSGSGTSYSLTISRDEAMDAATYYCQQWSSFPRTFGGGTKLEIKR . State its measured kon.
30600

Values were extracted from patent US20240158475A1.
